Values from patent US10160763B2

- TESTED ON: WDR5 (Δ23, residues 24-334) (Homo sapiens)
- METHOD NOTES: biochemical
- CONDITION CONTEXT: Kd (M), FPA-based binding affinity at the WDR5 WIN site; IC50 converted to Kd by modified Cheng-Prusoff equation; average of two experiments
Task for the reader: assign each of the following compounds its reported Kd.
One number for each entry, in M.

// solved cases for Kd follow
COc1cccc(NC(=O)N(C)Cc2cccc(-c3cn4c(n3)CCC4)c2)c1 [B31]
3.24e-07
CC(C)C(=O)N1CCCC(C(=O)NCc2cccc(-c3cn4c(n3)CCC4)c2)C1 (stereo not shown) [B185]
1.55e-07
O=C(NCc1cccc(-c2cn3c(n2)CCC3)c1)C(c1ccccc1)c1ccccc1 [B67]
1.06e-06
CC(C(=O)N(Cc1cccc(-c2cn3c(n2)CCC3)c1)C(C)C)c1cc(Cl)cc(Cl)c1 (stereo not shown) [B75]
4.1e-07
O=C(C1CCc2ccccc2C1)N(Cc1cccc(-c2cn3c(n2)CCC3)c1)CC1CC1 (stereo not shown) [B62]
2.81e-06
COc1cccc(C(=O)NCc2cc(-c3cn4c(n3)CCC4)ccc2N2CCC(OC)C2)c1 (stereo not shown) [B178]
1.73e-06
CC(=O)N1CCCCC1C(=O)NCc1cccc(-c2cn3c(n2)CCC3)c1 (stereo not shown) [B188]
3.3e-08
N#Cc1cccc(C(=O)NCc2cccc(-c3cn4c(n3)CCC4)c2)c1 [B172]
2.18e-07

Give one value of Kd per listed compound.
1. CCC(NC(=O)c1ccc(C)c(OC)c1)c1cccc(-c2cn3c(n2)CCC3)c1 (stereo not shown) [B215]
2. COc1ccc(C(=O)N(Cc2cccc(-c3cn4c(n3)CCC4)c2)C2CC2)cc1OC [B53]

1.7e-08
1.14e-06

Batch request: Kd for each of the following compounds.
1. COc1cccc(CC(=O)NCc2cccc(-c3cn4c(n3)CCC4)c2)c1 [B88]
2. C[C@H](C(=O)N(Cc1cccc(-c2cn3c(n2)CCC3)c1)CC1CC1)c1ccccc1 [B61]
3. O=C(Cc1ccncc1)NCc1cccc(-c2cn3c(n2)CCC3)c1 [B123]
4. O=C(NCc1cccc(-c2cn3c(n2)CCC3)c1)c1cccc2cccnc12 [B14]
5. COc1cc(C(=O)NCc2cc(-c3cn4c(n3)CCC4)ccc2N2CCOCC2C)ccc1C (stereo not shown) [B203]
6. CC(C)N(Cc1cccc(-c2cn3c(n2)CCC3)c1)C(=O)Nc1cc(Cl)cc(Cl)c1 [B72]
7. O=C(CCc1cccc(Cl)c1)NCc1cccc(-c2cn3c(n2)CCC3)c1 [B158]

["8.9e-07", "6.45e-07", "2.2e-08", "5.19e-06", "2.3e-08", "3.01e-07", "4.99e-06"]

Consider the following items and state reported Kd for each.
1. O=C(NCc1cccc(-c2cn3c(n2)CCC3)c1)Nc1cc(Cl)cc(Cl)c1 [B33]
2. Cc1ccc(C(=O)NCc2cccc(-c3cn4c(n3)CCC4)c2)cc1Br [B171]
3. COc1cccc(C(=O)NCc2cc(-c3cn4c(n3)CCC4)ccc2OCc2ccccc2)c1 [B115]
4. CC(=O)NCc1cccc(C(=O)NCc2cccc(-c3cn4c(n3)CCC4)c2)c1 [B189]
5. O=C(NCc1cccc(-c2cn3c(n2)CCC3)c1)c1ccc(Cl)cc1Cl [B4]
6. COc1cccc(NC(=O)NCc2cccc(-c3cn4c(n3)CCC4)c2)c1 [B24]

["3.52e-06", "6.26e-07", "1.3e-08", "7.41e-07", "3.9e-06", "2.05e-07"]

Look up Kd for the entries below, preserving their order.
1. O=C(NCc1cccc(-c2cn3c(n2)CCC3)c1)C1CCc2ccccc2C1 (stereo not shown) [B42]
2. O=C(CC12C[C@H]3C[C@@H](C1)C[C@@H](C2)C3)NCc1cccc(-c2cn3c(n2)CCC3)c1 [B107]
3. COc1cc(C(=O)NCc2cc(-c3cn4c(n3)CCC4)ccc2N2CCOCC2)ccc1C [B194]
4. CCC(C)N(Cc1cccc(-c2cn3c(n2)CCC3)c1)C(=O)c1cccc(OC)c1 (stereo not shown) [B86]

5.26e-07
5.6e-08
2.04e-06
4.25e-07

List the reported Kd of each compound below.
1. O=C(Cc1ccc(Cl)c(Cl)c1)NCc1cc(-c2cn3c(n2)CCC3)ccc1-c1ccccc1 [B111]
2. O=C(NCc1cccc(-c2cn3c(n2)CCC3)c1)c1cocn1 [B168]
3. O=C(CC1CCCCC1)NCc1cccc(-c2cn3c(n2)CCC3)c1 [B20]
4. COc1cccc(C(=O)N(Cc2ccccc2)Cc2cccc(-c3cn4c(n3)CCC4)c2)c1 [B35]
5. COc1cccc(C(=O)NCc2cc(-c3cn4c(n3)CCC4)ccc2OC2CCCC2)c1 [B117]

2e-08
5.75e-07
3.63e-06
2.43e-07
1e-05

Go through the list and state Kd for each entry.
1. CC(=O)N1CCCC(C(=O)NC(C)c2cc(-c3cn4c(n3)CCC4)ccc2OC2CCC2)C1 (stereo not shown) [B208]
2. CS(=O)(=O)NCc1cccc(C(=O)NCc2cccc(-c3cn4c(n3)CCC4)c2)c1 [B183]

["2.2e-08", "1.34e-06"]

Quick one: give me Kd for each item below, same order please.
1. CC(C)N(Cc1cc(-c2cn3c(n2)CCC3)ccc1OC1CCC1)C(=O)Cc1ccc(Cl)c(Cl)c1 [B148]
2. COc1ccc(C(=O)N(Cc2cccc(-c3cn4c(n3)CCC4)c2)CC2CC2)cc1OC [B59]
3. O=C(NCc1cccc(-c2cn3c(n2)CCC3)c1)c1cccc(Cl)c1Cl [B167]

1: 1.4e-08; 2: 6.18e-07; 3: 3.8e-07
